System: HepG2
Test: cell viability relative to DMSO; higher = less toxic
Settings: 72 h; 1000 nM
Measured parameter: cell viability (%)
# number only, unit % dropped from output

Completed entries (count: 2):
# Compound, Readout units, Result value
data = [
    ("C[C@@H]1C/C=C/C=C/C=C/C=C/[C@H](O[C@@H]2O[C@H](C)[C@@H](O)[C@H](N)[C@@H]2O)C[C@@H]2O[C@](O)(C[C@@H](O)C[C@H]3O[C@@H]3/C=C/C(=O)O1)C[C@H](O)[C@H]2C(=O)O", "%", 93.3),
    ("CC(C)C[C@H](NC(=O)[C@H](CCCCN)NC(=O)[C@H](CCCNC(=N)N)NC(=O)[C@H](C)NC(=O)[C@H](CO)NC(=O)[C@H](CCCCN)NC(=O)[C@H](CCCNC(=N)N)NC(=O)[C@H](C)NC(=O)CNC(=O)[C@@H](NC(=O)[C@H](Cc1ccccc1)NC(=O)CNC(=O)CNC(=O)[C@@H](N)Cc1ccccc1)[C@@H](C)O)C(=O)N[C@@H](C)C(=O)N[C@@H](CC(N)=O)C(=O)N[C@@H](CCC(N)=O)C(=O)O", "%", 98.7),
]

Exercise: Endpoint output: cell viability of `CC(=O)N(C)c1cc(-c2ccnc3c(C(=O)c4cccs4)cnn23)ccc1F` . Value?
Solution: 96.1

---

drug sensitivity score for assorted compounds
System: Vero E6
Assay: drug sensitivity score (DSS) for viability; higher = more toxic; extreme values may be limits of the assay
Details: 72 h
Could you keep your reply to the number by itself?

# Compound, drug sensitivity score
data = [
    ("NS(=O)(=O)c1cccc2c1c([N+](=O)[O-])cc1nc(O)c(O)nc12", 0),
    ("C=CC(=O)Nc1cc(Nc2nccc(-c3c[nH]c4ccccc34)n2)c(OC)cc1N(C)CCN(C)C", 15.6),
    ("CC(C)C[C@H](NC(=O)N1CCCCCC1)C(=O)N[C@H](Cc1cn(C)c2ccccc12)C(=O)N[C@H](Cc1ccccn1)C(=O)O", 0),
    ("CCCCCCCCC(=O)N[C@H](CN1CCCC1)[C@H](O)c1ccc2c(c1)OCCO2", 0),
    ("O=C(O)CCc1ccc(NCc2cccc3c2CCCN3CCOc2ccccc2)cc1F", 0),
]

Exercise: For the compound `N[C@@H](C(=O)N[C@@H]1C(=O)N2C(C(=O)O)=C(Cl)CS[C@H]12)c1ccccc1` , what drug sensitivity score is on record?
Solution: 0

Exercise: Request the reported drug sensitivity score associated with `CC(C)C[C@H](NC(=O)[C@H](CCCCN)NC(=O)[C@H](CCCNC(=N)N)NC(=O)[C@H](C)NC(=O)[C@H](CO)NC(=O)[C@H](CCCCN)NC(=O)[C@H](CCCNC(=N)N)NC(=O)[C@H](C)NC(=O)CNC(=O)[C@@H](NC(=O)[C@H](Cc1ccccc1)NC(=O)CNC(=O)CNC(=O)[C@@H](N)Cc1ccccc1)[C@@H](C)O)C(=O)N[C@@H](C)C(=O)N[C@@H](CC(N)=O)C(=O)N[C@@H](CCC(N)=O)C(=O)O`
Solution: 0

Exercise: Suppose we examine the compound CN1CCc2c(c3ccccc3n2Cc2ccccc2)C1 [mebhydrolin] ; what drug sensitivity score value has been reported?
Solution: 0

Exercise: What does the data say about its drug sensitivity score? Entry: `CCNC(=O)Nc1ccc(-c2nc3c(c(N4CCOC[C@@H]4C)n2)CCN(C2COC2)C3)cc1`
Solution: 5.6

Exercise: Need drug sensitivity score, item N[C@@H](C(=O)O)c1ccc(C(=O)O)c(C(=O)O)c1 (racemic) [3,4-DCPG-(+/-)]
Solution: 0

Exercise: For the compound `C[C@@H]1C/C=C/C=C/C=C/C=C/[C@H](O[C@@H]2O[C@H](C)[C@@H](O)[C@H](N)[C@@H]2O)C[C@@H]2O[C@](O)(C[C@@H](O)C[C@H]3O[C@@H]3/C=C/C(=O)O1)C[C@H](O)[C@H]2C(=O)O` , what drug sensitivity score is on record?
Solution: 0
